TESTED TARGET: CYP2C19 (Homo sapiens, UniProt P33261)
Sequence (P33261 whole entry): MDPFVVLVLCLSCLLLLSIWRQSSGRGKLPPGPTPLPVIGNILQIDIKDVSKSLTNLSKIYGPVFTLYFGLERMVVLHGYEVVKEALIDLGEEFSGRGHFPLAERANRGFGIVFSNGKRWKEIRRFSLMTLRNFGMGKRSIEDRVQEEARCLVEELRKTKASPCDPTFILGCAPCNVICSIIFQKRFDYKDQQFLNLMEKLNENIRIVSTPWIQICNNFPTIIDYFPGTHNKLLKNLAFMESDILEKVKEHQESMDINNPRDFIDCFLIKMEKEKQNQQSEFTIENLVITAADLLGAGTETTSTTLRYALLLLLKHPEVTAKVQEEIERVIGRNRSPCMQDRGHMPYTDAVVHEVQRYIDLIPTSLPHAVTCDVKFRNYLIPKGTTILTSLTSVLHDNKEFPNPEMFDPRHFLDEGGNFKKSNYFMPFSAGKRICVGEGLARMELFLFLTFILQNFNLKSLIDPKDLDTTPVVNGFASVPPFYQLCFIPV
QUANTITY KIND: IC50

Ask: Kindly state the measured IC50 obtained for `O=C(C=C(O)c1cc(Cc2c(F)cccc2F)cn(Cc2ccccc2F)c1=O)C(=O)NN1CCCC1=O` with CYP2C19 (Homo sapiens, UniProt P33261).
Reply: > 200 µM

* * *

Protein target, amino acids: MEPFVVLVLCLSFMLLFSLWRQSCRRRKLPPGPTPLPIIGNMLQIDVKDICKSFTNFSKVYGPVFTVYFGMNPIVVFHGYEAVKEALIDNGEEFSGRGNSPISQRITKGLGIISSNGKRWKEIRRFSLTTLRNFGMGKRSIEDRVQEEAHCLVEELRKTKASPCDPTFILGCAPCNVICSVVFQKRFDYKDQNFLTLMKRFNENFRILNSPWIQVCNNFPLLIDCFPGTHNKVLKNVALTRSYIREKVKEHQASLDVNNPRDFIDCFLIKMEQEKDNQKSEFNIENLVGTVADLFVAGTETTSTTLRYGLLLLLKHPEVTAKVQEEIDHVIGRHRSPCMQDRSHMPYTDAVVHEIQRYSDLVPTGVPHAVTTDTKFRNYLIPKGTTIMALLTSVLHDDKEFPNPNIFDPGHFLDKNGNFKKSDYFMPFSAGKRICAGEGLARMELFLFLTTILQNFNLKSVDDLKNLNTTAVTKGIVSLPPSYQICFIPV
pIC50: −log10 of the molar value.
QUANTITY KIND: pIC50

Ask: // returns reported pIC50 for input `O=C(C=C(O)c1cc(Cc2c(F)cccc2F)cn(Cc2ccccc2F)c1=O)C(=O)NN1CCCC1=O`
Reply: < 3.70

* * *

TESTED TARGET: CYP3A4 (Homo sapiens)
Sequence (P08684 whole entry): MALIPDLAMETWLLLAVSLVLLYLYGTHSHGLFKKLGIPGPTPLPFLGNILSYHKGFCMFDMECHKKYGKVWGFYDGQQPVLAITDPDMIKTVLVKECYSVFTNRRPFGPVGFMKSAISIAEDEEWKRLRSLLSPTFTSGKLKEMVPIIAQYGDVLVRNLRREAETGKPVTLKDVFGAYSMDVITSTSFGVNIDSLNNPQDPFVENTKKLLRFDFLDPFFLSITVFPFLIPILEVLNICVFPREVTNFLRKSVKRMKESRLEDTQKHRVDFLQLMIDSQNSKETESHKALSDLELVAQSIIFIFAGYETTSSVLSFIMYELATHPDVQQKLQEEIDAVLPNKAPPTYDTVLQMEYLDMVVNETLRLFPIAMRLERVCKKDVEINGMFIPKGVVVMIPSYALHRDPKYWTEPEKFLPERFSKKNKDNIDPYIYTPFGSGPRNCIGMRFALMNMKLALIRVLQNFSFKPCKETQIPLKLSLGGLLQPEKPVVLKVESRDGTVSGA
pIC50: −log10 of the molar value.
QUANTITY KIND: pIC50

Ask: Using the record for O=C(C=C(O)c1cc(Cc2c(F)cccc2F)cn(Cc2ccccc2F)c1=O)C(=O)NN1CCCC1=O [Compound 1] , report its pIC50.
Reply: < 3.70

* * *

TESTED TARGET: CYP2C9 (Homo sapiens, UniProt P11712)
Sequence (P11712 whole entry): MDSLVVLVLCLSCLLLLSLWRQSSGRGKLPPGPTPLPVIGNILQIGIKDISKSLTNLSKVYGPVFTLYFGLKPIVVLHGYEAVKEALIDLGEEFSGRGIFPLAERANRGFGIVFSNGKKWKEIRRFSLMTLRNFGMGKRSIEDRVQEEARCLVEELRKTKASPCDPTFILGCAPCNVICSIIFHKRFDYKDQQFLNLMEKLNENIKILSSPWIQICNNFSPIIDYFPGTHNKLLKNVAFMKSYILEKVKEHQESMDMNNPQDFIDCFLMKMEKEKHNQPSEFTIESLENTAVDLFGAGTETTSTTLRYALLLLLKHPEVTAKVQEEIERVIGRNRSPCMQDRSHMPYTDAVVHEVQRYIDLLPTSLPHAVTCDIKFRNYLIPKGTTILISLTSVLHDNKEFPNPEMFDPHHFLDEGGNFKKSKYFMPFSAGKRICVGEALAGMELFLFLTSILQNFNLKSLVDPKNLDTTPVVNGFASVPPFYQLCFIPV
QUANTITY KIND: IC50

Ask: Which IC50 value is on record for O=C(C=C(O)c1cc(Cc2c(F)cccc2F)cn(Cc2ccccc2F)c1=O)C(=O)NN1CCCC1=O [Compound 1] ?
Reply: > 200 µM

* * *

System: HIV-1 (Group M) isolate CDC310342, CRF02-AG
ASSAY EXPLANATION: Antiviral assay in fresh human PBMCs
Type: cell-based
CONDITION: Human immunodeficiency virus 1, PBMC, in Homo sapiens, read-out: EC50 (± SD)
QUANTITY KIND: EC50 (nM)
Numeric only. Scale: nM

Ask: Which EC50 is reported for this compound? `O=C(C=C(O)c1cc(Cc2c(F)cccc2F)cn(Cc2ccccc2F)c1=O)C(=O)NN1CCCC1=O`
Reply: 33.4

* * *

TESTED TARGET: CYP2C9 (Homo sapiens)
ASSAY EXPLANATION: Cytochrome P-450 isozyme inhibition assay in human liver microsomes
Type: in vitro ADME
CONDITION: human, liver microsomes, pH 7.4, probe tolbutamide 500 μM
QUANTITY KIND: inhibition at 30 min, 200 μM (%)
Express your answer in %, writing the number without its unit.

Ask: Would you mind telling me what inhibition at 30 min, 200 μM value was observed for `O=C(C=C(O)c1cc(Cc2c(F)cccc2F)cn(Cc2ccccc2F)c1=O)C(=O)NN1CCCC1=O` ?
Reply: 15.5
